Each recorded value in this set is attributed to PubChem BioAssay (NCI).

System: HS 578T breast
PROTOCOL DETAILS: NCI tumour cell line growth inhibition, 48 h
QUANTITY NAME: TGI

[[record]]
molecule = "O=C(/C=C/C12c3ccccc3C(c3ccccc31)C1C(=O)NC(=O)C12)c1ccco1 (centres undefined)"
target_of_assay = "HS 578T breast"
quantity_name = "TGI"
value = "30.2 µM"

[[record]]
molecule = "COc1ccc2c(c1)/C(=C/c1c(-c3ccc(C)cc3)nc3sc(C)cn13)C(=O)N2"
target_of_assay = "HS 578T breast"
quantity_name = "TGI"
value = "> 100 µM"

[[record]]
molecule = "O=S(=O)(NCCNc1cc(-c2cn(-c3ccccc3)nc2-c2cccc(O)c2)ccn1)c1ccc(F)cc1"
target_of_assay = "HS 578T breast"
quantity_name = "TGI"
value = "> 100 µM"

[[record]]
molecule = "Cc1ncc([N+](=O)[O-])n1CC(O)Cn1cnc([N+](=O)[O-])n1 (centres undefined)"
target_of_assay = "HS 578T breast"
quantity_name = "TGI"
value = "> 100 µM"

[[record]]
molecule = "N=C(N)C(N=Nc1ccccc1)C(=N)N (centres undefined)"
target_of_assay = "HS 578T breast"
quantity_name = "TGI"
value = "> 100 µM"

[[record]]
molecule = "CC1(C)C[C@H]2C3=CC[C@@H]4[C@@]5(C)CC[C@H](O)C(C)(C)[C@@H]5CC[C@@]4(C)[C@]3(C)C[C@@H](O)[C@@]23C[C@@H]1OC3=O"
target_of_assay = "HS 578T breast"
quantity_name = "TGI"
value = "> 100 µM"

[[record]]
molecule = "O=C(/C=C/c1c(O)c2ccccc2[nH]c1=O)CC(=O)C(=O)Nc1cccc(O)c1"
target_of_assay = "HS 578T breast"
quantity_name = "TGI"
value = "> 100 µM"

[[record]]
molecule = "O=[N+]([O-])c1ccccc1/C=C/C=C1c2ccccc2-c2ccccc21"
target_of_assay = "HS 578T breast"
quantity_name = "TGI"
value = "> 100 µM"

[[record]]
molecule = "CN1CCN(Cc2ccc(NC(=O)c3[nH]ncc3Nc3ccnc4ccsc34)cc2)CC1"
target_of_assay = "HS 578T breast"
quantity_name = "TGI"
value = "14.4 µM"


###

System: HOP-18 NSCLC
PROTOCOL DETAILS: NCI tumour cell line growth inhibition, 48 h
TGI values, listed per item
QUANTITY NAME: TGI

[[record]]
compound = "Cc1nc(Nc2ccccc2)sc1C(=O)NNC(N)=O"
target_of_assay = "HOP-18 NSCLC"
value = "> 100 µM"

[[record]]
compound = "O=C(CSc1nnc(-c2ccc(N=Cc3ccc(Cl)cc3)cc2)o1)Nc1ccccc1"
target_of_assay = "HOP-18 NSCLC"
value = "> 100 µM"

[[record]]
compound = "Cc1ccc(NC(=O)/C(=N/NC(=O)CC#N)C2C(=O)N(c3ccccc3)N=C2N)cc1C (stereo not drawn)"
target_of_assay = "HOP-18 NSCLC"
value = "> 100 µM"

[[record]]
compound = "Cc1c(N)nc([C@H](CC(N)=O)NC[C@H](N)C(N)=O)nc1C(=O)N[C@H](C(=O)N[C@H](C)[C@@H](O)[C@H](C)C(=O)N[C@H](C(=O)NCCc1nc(-c2nc(C(=O)NCCC[S+](C)C)cs2)cs1)[C@@H](C)O)C(OC1OC(CO)C(O)C(O)C1OC1OC(CO)C(O)C(OC(N)=O)C1O)c1cnc[nH]1 (stereo partly drawn)"
target_of_assay = "HOP-18 NSCLC"
value = "13.3 µM"

[[record]]
compound = "O=C(/C=C(\\O)C(=O)O)/C=C(\\O)c1ccccc1Cl"
target_of_assay = "HOP-18 NSCLC"
value = "> 100 µM"

[[record]]
compound = "Cc1c2c(cc3c1[nH]c1ccccc13)C(c1ccc(F)cc1)=NCC2"
target_of_assay = "HOP-18 NSCLC"
value = "14.5 µM"

[[record]]
compound = "Nc1nc(F)nc2c1ncn2C1OC(COP(=O)(O)O)C(O)C1O (stereo not drawn)"
target_of_assay = "HOP-18 NSCLC"
value = "552 µM"

[[record]]
compound = "C/C=C/CP(=O)(c1ccccc1)c1ccccc1"
target_of_assay = "HOP-18 NSCLC"
value = "> 100 µM"

